# test-system: T1, hIL-3 receptor (human, UniProt P26951)
# T1 sequence: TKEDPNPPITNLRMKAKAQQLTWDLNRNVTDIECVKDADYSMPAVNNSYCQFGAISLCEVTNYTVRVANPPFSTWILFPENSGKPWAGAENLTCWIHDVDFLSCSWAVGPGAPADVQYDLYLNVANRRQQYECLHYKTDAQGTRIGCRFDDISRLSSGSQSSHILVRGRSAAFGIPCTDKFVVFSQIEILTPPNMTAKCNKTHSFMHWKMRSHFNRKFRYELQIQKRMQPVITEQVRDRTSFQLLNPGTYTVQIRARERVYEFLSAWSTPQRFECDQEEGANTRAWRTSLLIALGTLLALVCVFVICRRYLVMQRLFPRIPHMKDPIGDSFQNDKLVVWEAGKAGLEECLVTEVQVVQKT
# method: cell-based or functional assay
endpoint-label: Relative Biological Activity (AML 193 proliferation)

pMON13425 polypeptide (ligand) MANCSIIIDEIIHHLKRPPNPLLDPNNLNSEDVDILLERNLRTPNLLAFVRAVKHLENASGIEAILRNLQPCLPSATAAPSRHPIIIKAGDWQEFREKLTFYLVTLEQAQEQQ
6 EC50 (1-133)hIL-3 / EC50 mutant
pMON13412 polypeptide (ligand) MANCSIMIDEIIHHLKRPPNPLLDPNNLNSEDMDILMERNLRTPNLLAFVRAVKHLENASGIEAILRNLQPCLPSATAAPSRHPIIIKAGDWQEFRLKLQFYLSTL
0.5 EC50 (1-133)hIL-3 / EC50 mutant
pMON13290 polypeptide (ligand) MANCSIMIDEIIHHLKRPPAPLLDPNNLNAEDVDILMERNLRLPNLESFVRAVKNLENASGIEAILRNLVPCLPSATAAPSRHPITIKAGDWQEFREKLTFYLVTLEQAQEQQ
20 EC50 (1-133)hIL-3 / EC50 mutant
pMON13451 polypeptide (ligand) MANCSIILDEAIHHLKIPPNPSLDSANLNSEDVSILMERNLRTPNLLAFVRAVKHLENASGIEPILRNLQPCLPSATAAPSRTPIIIKAGDWQEFREKLTFYLVTLEQAQEQQ
0.1 EC50 (1-133)hIL-3 / EC50 mutant
pMON13330 polypeptide (ligand) MANCSNMIDEIITHLKQPPLPLLDFNNLNDEDMSILMDNNLRRPNLEAFNRAVKSLQNASAIESILKNLLPCLPLATAAPTRRPIIIRDGDWNEFRRKLTFYLWTLENAQAQQ
19 EC50 (1-133)hIL-3 / EC50 mutant

Reported Relative Biological Activity (AML 193 proliferation) for pMON13368 polypeptide (ligand) MANCSIMIDEAIHHLKVPPAPLLDSNNLNSEDMDILMERNLRLPNLLAFVRAVKNLENASGIEAILRNLQPCLPSATAAPSRHPIIIKAGDWQEFREKLTFYLVTLEQAQEQQ was 1.6 EC50 (1-133)hIL-3 / EC50 mutant

Reported Relative Biological Activity (AML 193 proliferation) for pMON13376 polypeptide (ligand) MDNCSIMIDEAIHHLKRPPAPLLDPNNLNAEDVDILMERNLRLPNLESFVRAVKNLENASGIEAILRNLQPCLPSATAAPSRHPIIIKAGDWQEFREKLQFYLVTLE was 0.4 EC50 (1-133)hIL-3 / EC50 mutant

Reported Relative Biological Activity (AML 193 proliferation) for pMON13374 polypeptide (ligand) MANCSIMIDEIIHHLKRPPAPLLDPNNLNSEDMSILMDRNLRLPNLESFVRAVKNLENASGIEAILRNLQPCLPSATAAPSRHPIIIKAGDWQEFREKLTFYLVTLEQAQEQQ was 6 EC50 (1-133)hIL-3 / EC50 mutant
